system: T1, GITR expressed on CHO cells (Homo sapiens (Human), UniProt Q9Y5U5 26-241)
T1 construct: also called glucocorticoid-induced TNFR-related protein; TNFRSF18
T1 sequence: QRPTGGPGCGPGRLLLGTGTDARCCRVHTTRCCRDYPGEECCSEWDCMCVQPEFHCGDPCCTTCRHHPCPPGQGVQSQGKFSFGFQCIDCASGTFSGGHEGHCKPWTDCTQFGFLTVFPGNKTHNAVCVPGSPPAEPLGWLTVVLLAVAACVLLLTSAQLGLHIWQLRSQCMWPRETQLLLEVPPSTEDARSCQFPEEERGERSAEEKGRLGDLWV
experiment: flow cytometry competition on GITR-expressing CHO cells; blocked ligand recombinant GITRL; readout GITRL bound, MFI-FL1
reported.endpoint: IC50 (read off the curve)

# binder, IC50 (read off the curve)
data = [
    ("B2 (VHH, not shown: a dimerising Fc or GST; small tags and cut ends) VHH: QVQLQESGGGLVQPGGSLRLSCAASGSVFSIDSMSWFRQAPGNERELVALITGGHTTTYGDSVKGRFTISRASAPNTVHLQMNSLQPEDTAVYYCNAAVSTGWGRNADDYWGQGTQVTVS", "~1 nM"),
    ("2A1 (VHH, not shown: a dimerising Fc or GST; small tags and cut ends) VHH: EVQLVQSGGGLVQPGGSLRLSCAASGNIFSIDAMGWYRQAPGRQRELVAQIPGGPTDSVKGRFTVSGNSAKNTGYLQMNTLKPEDTAVYYCNIVASTSWGSPSKVYWGQGTQATVSS", "~10 nM"),
    ("B12 (VHH, not shown: a dimerising Fc or GST) VHH: QVQLQQSGGGLVQAGGSLRLSCAASGSIFSIDAMGWYRLAPGKQRELVAVIDGVSPNYADSVKGRFTISSDIAKNTVYLQMHSPKPEDTAVYYCNADVSTGWGRPADHYWGQGTQVTVS", "~6 nM"),
    ("E2 (VHH, not shown: a dimerising Fc or GST; small tags and cut ends) VHH: QVQLQESGGGLVQPGGSLRLSCAASGSVFSIDSMSWFRQAPGNERELVALITGGRTTTYADSVKGRFTISRASAPNTVYLQMNSLKPEDTAVYYCNAVVSTGWGRNADDYWGQGTQVTVS", "~2 nM"),
]

input: Determine from records and report IC50 (read off the curve) for F05 (VHH, not shown: a dimerising Fc or GST; small tags and cut ends) VHH: QVQLVQSGGGLVQAGGSLRLSCTASGSIFSINHMAWYRQAPGKQREMVAHITGGASTKYADSVKGRFTISRDSALNTVSLRMNSLKPEDTAVYYCNAEVNEGWNADYYDVWGQGTQVTVSS
output: ~4 nM

input: Determine from records and report IC50 (read off the curve) for C06 (VHH, not shown: a dimerising Fc or GST; small tags and cut ends) VHH: QVQLQESGGGLVQAGGSLRLSCAASGSVFSIDAMGWYRLAPGQQRELVAVLNGISSAKYADSVKGRFTISGDSAKNAVYLQMDGLKPEDTAVYYCYADVSTGWGRDAHGYWGQGTQVTVSS
output: ~2 nM

input: Determine from records and report IC50 (read off the curve) for B7 (VHH, not shown: a dimerising Fc or GST) VHH: QVQLQESGGGLVQPGGSLRLSCAASGSVFSIDSMSWFRQTPGNERELVAHITGGRTTTYADSVKGRFTISRASAPNTVHLQMNNLKPEDTAVYYCNAAVSTGWGRNADDYWGQGTQVTVS
output: ~3 nM

input: Determine from records and report IC50 (read off the curve) for C4 (VHH, not shown: a dimerising Fc or GST) VHH: QVQLVQSGGGLVQPGESLRLSCAASGSVFSIDSMSWFRQGPGNERELVALITGGRTTTYADSVKGRFTISRANAPNTVHLQMNSLKPEDTAVYYCNAAVSTGWGRSADDYWGQGTQVTVS
output: 2 to 3 nM

input: Determine from records and report IC50 (read off the curve) for F2 (VHH, not shown: a dimerising Fc or GST; small tags and cut ends) VHH: QLVQSGGGLVQPGESLRLSCAASGSVFSIDSVSWFRQGPGNERELVALITGGRTTTYADSVKGRFTISRANAPNTVHLRMNSLKPEDTAVYYCNAAVSTGWGRNADDYWGQGTQVTVS
output: ~1 nM

input: Determine from records and report IC50 (read off the curve) for H11 (VHH, not shown: a dimerising Fc or GST) VHH: QVQLVQSGGGLVQPGGSLRLSCAASGSVFSIDSMSWFRQAPGNERELVALITGGRTTTYADSVKGRFTISRASAPNTVHLQMNSLKPEDTAVYYCNAVVSTGWGRNADDYWGQGTQVTVS
output: 2 to 3 nM

input: Determine from records and report IC50 (read off the curve) for C7 (VHH, not shown: a dimerising Fc or GST) VHH: QVQLQESGGGLVQAGGSLRLSCTASGSIFSIDDMGWYRLAPGKQRELVAVHSGSSTNYGDSVKGRFTISGDSAKNTVYLQMHRLEPEDTAVYYCYAAISSGWGRDAEDYWGQGTQVTVS
output: 2 to 3 nM

input: Determine from records and report IC50 (read off the curve) for B5 (VHH, not shown: a dimerising Fc or GST) VHH: QVQLVQSGGGLVQPGESLRLSCAASGSVFSIDSMSWFRQGPGNERELVALITGGRTTTYADSVKGRFTISRANAPNTVHLQMNSLEPEDTAVYYCNAAVSTGWGRNADDYWGQGTQVTVS
output: 2 to 3 nM

input: Determine from records and report IC50 (read off the curve) for B3 (VHH, not shown: a dimerising Fc or GST) VHH: QVQLVQSGGGLVQPGGSLRLICAASGSVFSIDSMSWFRQRPGNERELVALITGGRTTTYSDSVKGRFTISRASALNTVHLQMNSLKPEDTAVYYCNAALSTGWGRDASAYWGQGTQVTVS
output: ~3 nM
